target_entity: HTR2B (5-HT2B) (Homo sapiens, UniProt P41595)
Sequence (P41595 whole entry): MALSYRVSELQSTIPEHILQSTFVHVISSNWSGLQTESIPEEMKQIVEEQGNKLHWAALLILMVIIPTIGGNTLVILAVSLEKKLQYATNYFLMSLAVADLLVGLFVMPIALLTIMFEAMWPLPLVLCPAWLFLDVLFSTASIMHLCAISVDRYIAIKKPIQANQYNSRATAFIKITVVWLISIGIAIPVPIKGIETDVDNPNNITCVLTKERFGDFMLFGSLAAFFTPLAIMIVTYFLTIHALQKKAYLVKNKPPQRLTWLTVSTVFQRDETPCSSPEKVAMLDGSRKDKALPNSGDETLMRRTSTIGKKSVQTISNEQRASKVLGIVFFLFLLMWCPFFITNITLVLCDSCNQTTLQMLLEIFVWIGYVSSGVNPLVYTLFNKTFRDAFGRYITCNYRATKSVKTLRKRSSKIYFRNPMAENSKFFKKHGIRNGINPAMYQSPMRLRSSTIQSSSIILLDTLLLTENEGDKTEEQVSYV
experimental_protocol: cell-based
Each item that follows carries a reported IC50.

- compound: "CN(C)CCc1c[nH]c2cccc(OP(=O)(Oc3ccccc3)Oc3ccccc3)c12"
  IC50, nM: 127
- compound: "CN(C)CCc1c[nH]c2cccc(OC(=O)OCc3ccccc3)c12"
  IC50, nM: 281

----------
Each item that follows carries a reported pEC50.
target_entity: OPRD1 (Homo sapiens)
Sequence (P41143 whole entry): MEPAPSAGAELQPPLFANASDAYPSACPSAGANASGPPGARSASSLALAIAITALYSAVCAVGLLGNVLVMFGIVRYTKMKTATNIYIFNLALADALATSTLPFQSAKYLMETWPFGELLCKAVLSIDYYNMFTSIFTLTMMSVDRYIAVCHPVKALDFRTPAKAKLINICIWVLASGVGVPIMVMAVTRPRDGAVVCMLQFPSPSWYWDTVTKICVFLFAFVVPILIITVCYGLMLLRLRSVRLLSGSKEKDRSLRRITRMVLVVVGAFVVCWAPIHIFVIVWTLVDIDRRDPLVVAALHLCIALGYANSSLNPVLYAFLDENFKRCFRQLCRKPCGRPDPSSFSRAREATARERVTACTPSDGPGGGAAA
experimental_protocol: cell-based
experimental_conditions: OPRD1, GPCR, AGN (agonist); read-out: EC50
pEC50: −log10 of the molar value.

- compound: "CN(C)Cc1c[nH]c2cccc(O[Si](C)(C)C(C)(C)C)c12 [A(IV)]"
  bound_operator: "="
  pEC50: 4.54
- compound: "CCCC(=O)OCOc1cccc2[nH]cc(CCN(C)C)c12 [D(IV)]"
  bound_operator: "="
  pEC50: 4.27
- compound: "CN(C)CCc1c[nH]c2cccc(OC(=O)OCC3CC3)c12 [B(III)]"
  bound_operator: "<"
  pEC50: 4.00
- compound: "CC(C)[Si](Oc1cccc2[nH]cc(CN(C)C)c12)(C(C)C)C(C)C [A(V)]"
  bound_operator: "="
  pEC50: 4.48
- compound: "CCCCC(=O)OCOc1cccc2[nH]cc(CCN(C)C)c12 [D(III)]"
  bound_operator: "<"
  pEC50: 4.00

----------
target_entity: HTR3A (5-HT3A) (Homo sapiens, UniProt P46098)
Sequence (P46098 24-478): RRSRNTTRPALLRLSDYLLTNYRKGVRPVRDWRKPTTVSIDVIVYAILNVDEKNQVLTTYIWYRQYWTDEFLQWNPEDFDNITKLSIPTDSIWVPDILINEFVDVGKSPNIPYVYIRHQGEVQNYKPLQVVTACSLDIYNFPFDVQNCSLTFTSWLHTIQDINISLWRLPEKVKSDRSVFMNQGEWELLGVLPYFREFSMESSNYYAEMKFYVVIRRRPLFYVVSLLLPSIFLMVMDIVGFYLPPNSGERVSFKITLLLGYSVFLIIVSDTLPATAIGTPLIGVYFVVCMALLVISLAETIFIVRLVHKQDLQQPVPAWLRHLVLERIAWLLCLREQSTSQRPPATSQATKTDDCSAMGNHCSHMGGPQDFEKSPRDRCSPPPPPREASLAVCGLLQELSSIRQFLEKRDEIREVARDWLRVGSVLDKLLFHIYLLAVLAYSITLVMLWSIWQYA
experimental_protocol: cell-based
experimental_conditions: HTR3A, ion channel, BL (blocker); read-out: IC50
pIC50: −log10 of the molar value.
Each item that follows carries a reported pIC50.
property: pIC50

- molecule: "CC(C)[Si](Oc1cccc2[nH]cc(CN(C)C)c12)(C(C)C)C(C)C [A(V)]"
  bound_operator: "="
  reported_value: 5.84
- molecule: "CC(C)OC(=O)OCOc1cccc2c1c(CCN(C)C)cn2COC(=O)OC(C)C [D(XIII)]"
  bound_operator: "="
  reported_value: 4.78
- molecule: "CN(C)CCc1c[nH]c2cccc(OC(=O)OCC3CC3)c12 [B(III)]"
  bound_operator: "="
  reported_value: 4.32
- molecule: "CCCC(=O)OCOc1cccc2[nH]cc(CCN(C)C)c12 [D(IV)]"
  bound_operator: "<"
  reported_value: 4.00
- molecule: "CN(C)Cc1c[nH]c2cccc(O[Si](C)(C)C(C)(C)C)c12 [A(IV)]"
  bound_operator: "="
  reported_value: 6.08
- molecule: "CCCCC(=O)OCOc1cccc2[nH]cc(CCN(C)C)c12 [D(III)]"
  bound_operator: "="
  reported_value: 4.49

----------
target_entity: NMDAR (Homo sapiens, UniProt Q05586+Q13224)
Sequence (Q13224 27-1484, other chains not shown): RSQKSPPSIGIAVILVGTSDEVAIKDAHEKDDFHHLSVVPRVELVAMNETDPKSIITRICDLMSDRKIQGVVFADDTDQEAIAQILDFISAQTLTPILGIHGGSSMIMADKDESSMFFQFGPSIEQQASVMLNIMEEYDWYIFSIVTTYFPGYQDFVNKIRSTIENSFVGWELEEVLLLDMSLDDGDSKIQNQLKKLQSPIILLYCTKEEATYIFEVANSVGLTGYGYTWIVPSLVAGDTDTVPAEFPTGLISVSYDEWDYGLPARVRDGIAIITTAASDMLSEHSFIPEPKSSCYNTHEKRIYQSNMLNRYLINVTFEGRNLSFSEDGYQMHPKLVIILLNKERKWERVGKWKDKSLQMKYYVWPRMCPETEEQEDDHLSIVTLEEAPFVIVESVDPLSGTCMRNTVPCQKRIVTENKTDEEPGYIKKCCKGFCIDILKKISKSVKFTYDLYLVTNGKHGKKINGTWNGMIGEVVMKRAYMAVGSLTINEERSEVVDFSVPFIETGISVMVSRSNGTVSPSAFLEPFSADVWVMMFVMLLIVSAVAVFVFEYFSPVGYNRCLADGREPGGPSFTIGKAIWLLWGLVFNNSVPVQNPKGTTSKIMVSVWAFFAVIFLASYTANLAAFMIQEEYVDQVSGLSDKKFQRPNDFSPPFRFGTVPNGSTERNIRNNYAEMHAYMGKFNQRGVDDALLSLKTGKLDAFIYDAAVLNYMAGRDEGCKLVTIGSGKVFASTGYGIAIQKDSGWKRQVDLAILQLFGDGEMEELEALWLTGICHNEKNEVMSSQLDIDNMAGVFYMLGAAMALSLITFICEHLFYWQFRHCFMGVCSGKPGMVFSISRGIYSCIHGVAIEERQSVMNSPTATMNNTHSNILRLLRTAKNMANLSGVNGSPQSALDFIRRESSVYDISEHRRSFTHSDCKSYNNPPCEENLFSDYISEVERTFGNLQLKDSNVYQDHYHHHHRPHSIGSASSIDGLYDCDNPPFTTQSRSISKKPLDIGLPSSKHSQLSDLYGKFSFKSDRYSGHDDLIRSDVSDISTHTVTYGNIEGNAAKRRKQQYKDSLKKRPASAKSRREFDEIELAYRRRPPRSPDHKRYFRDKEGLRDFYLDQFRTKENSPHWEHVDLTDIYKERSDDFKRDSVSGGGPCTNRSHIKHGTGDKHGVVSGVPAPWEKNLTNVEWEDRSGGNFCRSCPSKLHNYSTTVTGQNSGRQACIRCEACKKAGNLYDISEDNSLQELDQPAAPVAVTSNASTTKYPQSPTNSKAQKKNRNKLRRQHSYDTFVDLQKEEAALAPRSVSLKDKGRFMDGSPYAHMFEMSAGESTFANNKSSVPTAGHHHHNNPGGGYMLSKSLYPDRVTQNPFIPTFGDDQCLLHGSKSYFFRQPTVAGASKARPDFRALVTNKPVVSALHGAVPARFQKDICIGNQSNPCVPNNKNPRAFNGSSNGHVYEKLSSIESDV
experimental_protocol: cell-based
experimental_conditions: NMDAR, ion channel, BL (blocker); read-out: IC50
Each item that follows carries a reported IC50.

- compound: "CCCCC(=O)OCOc1cccc2[nH]cc(CCN(C)C)c12"
  IC50: "> 100 µM"
- compound: "CN(C)CCc1c[nH]c2cccc(OC(=O)OCC3CC3)c12"
  IC50: "> 100 µM"
- compound: "CC(C)OC(=O)OCOc1cccc2c1c(CCN(C)C)cn2COC(=O)OC(C)C"
  IC50: "> 100 µM"
- compound: "CN(C)Cc1c[nH]c2cccc(O[Si](C)(C)C(C)(C)C)c12"
  IC50: "12.1 µM"
- compound: "CCCC(=O)OCOc1cccc2[nH]cc(CCN(C)C)c12"
  IC50: "> 100 µM"
- compound: "CC(C)[Si](Oc1cccc2[nH]cc(CN(C)C)c12)(C(C)C)C(C)C"
  IC50: "10.1 µM"

The values you see were collected from patent US20250352512A2.
